Origin of measurements: patent US20230357233A1

Some compounds, each annotated with its measured pKd.
- TARGET UNDER TEST: recombinant human KRAS^G12D protein (Homo sapiens, UniProt P01116, G12D)
- Sequence (P01116 1-188 isoform P01116-2 G12D): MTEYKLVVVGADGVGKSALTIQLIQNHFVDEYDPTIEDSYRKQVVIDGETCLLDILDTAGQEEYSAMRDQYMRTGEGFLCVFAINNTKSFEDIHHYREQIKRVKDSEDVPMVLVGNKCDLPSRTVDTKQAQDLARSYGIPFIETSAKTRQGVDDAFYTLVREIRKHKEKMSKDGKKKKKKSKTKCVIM
- PROTOCOL DETAILS: Temperature-dependent Fluorescence (TdF) KRAS^G12D protein binding assay
- CONDITION SET: 6 μM KRAS^G12D Protein, 10 μM compound, Sypro Orange; Kd calculated from fluorescent shift
pKd: −log10 of the molar value.
TEST READOUT: pKd

- Oc1cc(-c2ncc3c(N4CC5CCC(C4)N5)nc(OCC45CCCN4CCC5)cc3n2)c2c(Cl)cccc2c1Cl: < 5.30
- c1ccc2c(-c3ncc4c(N5CC6CCC(C5)N6)nc(OCC56CCCN5CCC6)cc4n3)cccc2c1: < 5.30
- Cc1cc(N)nc(-c2nc(C)c3c(N4CC5CCC(C4)N5)nc(OC[C@@]45CCCN4C[C@H](F)C5)nc3c2F)c1C(F)(F)F: 5.30 to 6.30
- Oc1cc(-c2ncc3c(N4CC5(CCCN5)C4)nc(OC[C@@]45CCCN4C[C@H](F)C5)nc3c2F)c2c(Cl)cccc2c1: < 5.30
- Oc1cc(-c2ncc3c(N4CCNCC4)nc(OC[C@@]45CCCN4C[C@H](F)C5)nc3c2F)c2c(Cl)cccc2c1: ≥ 6.30
- Fc1ccc2cccc(-c3ncc4c(N5CC6CCC(C5)N6)nc(OC[C@@]56CCCN5C[C@H](F)C6)nc4c3F)c2c1Cl: ≥ 6.30
- CN1CCC[C@H]1Cn1c(=O)nc(N2CCNCC2)c2cnc(-c3cccc4cccc(Cl)c34)c(F)c21: < 5.30
- Cc1nc(-c2ccc(F)c3nc(N)sc23)c(F)c2nc(OC[C@@]34CCCN3C[C@H](F)C4)nc(N3CC4CCC(C3)N4)c12: < 5.30
- Oc1cc(-c2nc(Cl)c3c(N4CC5CCC(C4)N5)nc(OC[C@@]45CCCN4C[C@H](F)C5)nc3c2F)c2ccccc2c1: ≥ 6.30
- CN1CCC[C@H]1Cn1c(=O)nc(N2CC3CCC(C2)N3)c2cnc(-c3cc(O)cc4ccccc34)c(F)c21: < 5.30
- C#Cc1c(F)ccc2cc(O)cc(-c3nc(Cl)c4c(N5CC6CCC(C5)N6)nc(OC[C@@]56CCCN5C[C@H](F)C6)nc4c3F)c12: ≥ 6.30
- CN1CCC[C@H]1Cn1c(=O)nc(N2CC3CCC(C2)N3)c2cc(F)c(-c3cc(O)cc4cccc(Cl)c34)nc21: < 5.30
- Oc1cc(-c2nc(OC[C@@]34CCCN3C[C@H](F)C4)c3ccc(N4CC5CCC(C4)N5)nc3c2Br)c2c(Cl)cccc2c1: < 5.30
- Fc1c(-c2cccc3cccc(Cl)c23)nc(OCC23CCCN2CCC3)c2ccc(N3CCNCC3)nc12: < 5.30

---

# GI50 values compiled below
- TARGET UNDER TEST: Ba/F3_KRAS^G12D cells (Homo sapiens, UniProt P01116, G12D, cells depend on it)
- Sequence (P01116 whole entry G12D): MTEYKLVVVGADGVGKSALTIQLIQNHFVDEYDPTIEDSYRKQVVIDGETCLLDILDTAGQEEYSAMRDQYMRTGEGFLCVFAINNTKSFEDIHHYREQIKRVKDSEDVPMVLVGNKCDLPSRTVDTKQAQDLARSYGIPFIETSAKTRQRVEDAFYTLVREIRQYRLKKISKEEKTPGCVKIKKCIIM
- PROTOCOL DETAILS: Ba/F3 KRAS^G12D cell proliferation assay (cell-titer Glo)
- Format: cell-based
- CONDITION SET: cell growth inhibition, treated with the compounds for 3 days, read-out: BaF3_KRAS^G12D IC50
TEST READOUT: GI50

- C#Cc1c(F)ccc2cc(O)cc(-c3nc(OC)c4c(N5CC6CCC(C5)N6)nc(OCC5(CN6CCC6)CC5)nc4c3F)c12: < 0.5 µM
- CN1CCC[C@@H]1COc1nc(-c2cccc3ccccc23)c(F)c2nc(N3CCNCC3)ccc12: 0.5 to 5 µM
- C[C@H]1CNCCN1c1nc(OCCN(C)C)c(-c2cccnc2C2CC2)c2nc(-c3ccccc3F)c(F)cc12: 0.5 to 5 µM
- N#Cc1cccc2cc(O)cc(-c3ncc4c(N5CC6CCC(C5)N6)nc(OCC56CCCN5CCC6)nc4c3F)c12: > 5 µM
- C#Cc1c(F)ccc2cc(O)cc(-c3nc(O)c4c(N5CC6CCC(C5)N6)nc(OC[C@@H]5CCCN5C)nc4c3F)c12: 0.5 to 5 µM
- Fc1c(-c2cccc3cccc(Cl)c23)ncc2c(N3CC4CCC(C3)N4)nc(OCC34CCCN3CCC4)nc12: < 0.5 µM
- C#Cc1c(F)ccc2cc(O)cc(-c3nc(OC(C)C)c4c(N5CC6CCC(C5)N6)nc(OCC5(CN6CCN(C(C)=O)CC6)CC5)nc4c3F)c12: < 0.5 µM
- CN(C)CCOc1cc2nc(-c3ccccc3F)c(F)cc2c(N2C3CCC2CNC3)n1: 0.5 to 5 µM
- CCc1cccc2cc(O)cc(-c3nc(C(F)F)c4c(N5CC6CCC(C5)N6)nc(OC[C@@]56CCCN5C[C@H](F)C6)nc4c3F)c12: < 0.5 µM
- Cc1nc(-c2cc(O)cc3cccc(CCC#N)c23)c(F)c2nc(OC[C@@]34CCCN3C[C@H](F)C4)nc(N3CC4CCC(C3)N4)c12: > 5 µM
- Oc1cc(-c2nc(OC[C@@]34CCCN3C[C@H](F)C4)c3ccc(N4CC5CCC(C4)N5)nc3c2Br)c2c(Cl)cccc2c1: 0.5 to 5 µM
- O=c1cc2c(N3CC4CCC(C3)N4)nc(OCC34CCCN3CCC4)nc2cn1-c1cccc2ccccc12: 0.5 to 5 µM
- C#Cc1c(F)ccc2cc(O)cc(-c3nc(OC(C)C)c4c(N5CC6CCC(C5)N6)nc(C)nc4c3F)c12: < 0.5 µM
- Cc1cc(N)nc(-c2nc(C)c3c(N4CC5CCC(C4)N5)nc(OC[C@@]45CCCN4C[C@H](F)C5)nc3c2F)c1C(F)(F)F: > 5 µM
